Cited source: PubChem BioAssay AID1159580

- Assay Explanation: chemical genetic growth profiling, strain panel (AID 1159580);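 also: tested at 20 µM; growth read once vehicle control cultures reached saturation at 30 °C; 1 = growth at the plate median or of vehicle wells; lower values mean less growth of the strain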
- Assay Context: S. cerevisiae strains, growth OD, strain wild type, stronger effect = lower value
Out of some 5,500 compounds screened, about 2,000 (36%) were called active. About 18% were inconclusive and are not listed. The list shows a part of the results.
Property Name: normalized growth
Output: the number by itself.

For orientation, consider the following solved cases.
CC(=O)Oc1ccc(O)cc1	0.925
Cc1cc(=O)n(-c2ccc([N+](=O)[O-])cc2)[nH]1	0.866
CC(=O)Oc1ccc(C(c2ccc(OC(C)=O)cc2)c2ccccn2)cc1	1

Task: Which measured normalized growth value corresponds to CC(C)CCCC(C)C1CC[C@@]2(C)C3=C(CC[C@]12C)[C@@]1(C)CC[C@H](O)C(C)(C)C1CC3 (some centres not stated) ?
Result: 0.957

Task: Proceed to `CS(=O)(=O)Nc1ccc([N+](=O)[O-])cc1Oc1ccccc1`
Result: 0.978

Task: Proceed to `CC(=O)N[C@@H](Cc1c[nH]c2ccccc12)C(N)=O`
Result: 0.995

Task: Proceed to `OC(c1ccccc1)(c1ccccc1)c1ccncc1`
Result: 1.01

Task: Proceed to O=C(O)CSC1CCS(=O)(=O)C1 (configuration not stated)
Result: 1.01

Task: Proceed to `COc1ccc2cc(CCC(C)=O)ccc2c1`
Result: 0.935

====

- Assay Explanation: chemical genetic growth profiling, strain panel (AID 1159580);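 also: tested at 20 µM; growth read once vehicle control cultures reached saturation at 30 °C; 1 = growth at the plate median or of vehicle wells; lower values mean less growth of the strain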
- Assay Context: S. cerevisiae deletion strains, growth OD, locus YGR229C, strain SMI1, stronger effect = lower value
Screen size: about 5,500 compounds; about 2,000 (36%) were called active. Inconclusive results (about 18%) are left out. Some of the results follow.
Category scheme (normalized growth): 1 = under 0.9, 2 = from 0.9 up to 1, 3 = 1 and over

These recorded examples may help you get a feel for the data.
CC(Cc1cccc(C(F)(F)F)c1)NCCOC(=O)c1ccccc1 (centres undefined)	1
CC1c2cccc(O)c2C(O)=C2C(=O)C3(O)C(O)=C(C(N)=O)C(=O)C(N(C)C)C3C(O)C21 (centres undefined)	1

Task: Categorize the following entry: `C=C1c2c(Cl)ccc(O)c2C(O)=C2C(=O)[C@]3(O)C(O)=C(C(N)=O)C(=O)[C@@H](N(C)C)[C@@H]3[C@@H](O)[C@H]12`
Result: 2

Task: Proceed to `COC(=O)c1c(C)c2c(c(C)c1OC)OC(=O)c1c(C)c(Cl)c(OC)c(Cl)c1O2`
Result: 3

Task: Proceed to `COC(=O)c1c(OC)cc2c(c1C)Oc1c(Cl)c(O)c(Cl)c(C)c1C(=O)O2`
Result: 1

====

Each record here notes measured normalized growth.
- Assay Explanation: chemical genetic growth profiling, strain panel (AID 1159580);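 also: tested at 20 µM; growth read once vehicle control cultures reached saturation at 30 °C; 1 = growth at the plate median or of vehicle wells; lower values mean less growth of the strain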
- Assay Context: S. cerevisiae deletion strains, growth OD, locus YAL030W, strain snc1, stronger effect = lower value
Screen size: about 5,500 compounds; about 2,000 (36%) were called active. Not shown: some 18% with an inconclusive outcome. Some of the results follow.

Task: Which measured normalized growth value corresponds to CC12CCC3C(CC3(C)C)C(C)(CCC1=O)O2 (stereo unspecified) ?
Result: 0.994 (inactive)

Task: Proceed to `CCN(CC)CCOC(=O)C1(C2CCCCC2)CCCCC1`
Result: 0.985 (inactive)

Task: Proceed to `CN(C)CCCN1c2ccccc2Sc2ccc(C(F)(F)F)cc21`
Result: 1.01 (inactive)

Task: Proceed to `OC[C@H]1O[C@@H](O[C@@H]2[C@@H](CO)O[C@](O)(CO)[C@H]2O)[C@H](O)[C@@H](O)[C@H]1O`
Result: 1 (inactive)

Task: Proceed to `CN(C)CCCN1c2ccccc2CCc2ccccc21`
Result: 1 (inactive)

Task: Proceed to `OC[C@H]1O[C@@](CO)(O[C@@H]2O[C@H](CO)[C@@H](O)[C@H](O)[C@H]2O)[C@@H](O[C@@H]2O[C@H](CO)[C@@H](O)[C@H](O)[C@H]2O)[C@@H]1O`
Result: 1.02 (inactive)
